Test system: THRa homodimer (NR concentration 90 nM)
Test: PBM binding z-score (relative to random genomic background probes); higher = stronger binding; sequences stand for … in GC…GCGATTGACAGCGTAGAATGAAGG
endpoint_name: PBM binding z-score

AATACAGGGTCATCGTAGCCCAGAGTACGCACAG; 1.34
CCTACTGGGCCAAGGTCATTGGTCAGTCAAAGCA; 2.62
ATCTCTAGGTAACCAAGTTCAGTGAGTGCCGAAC; 0.776
CCGACTGGGGCATAAGGTTACCGTAAGCCAGCCC; 1.13
CAAGCTAGGTCACGAAAGGTCAAAGTCGAATGAC; 2.29
CGTCCAAGGTCAGAGAGGTCAGGGAATGCCGAGT; 3.11
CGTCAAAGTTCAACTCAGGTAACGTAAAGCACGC; 1.38
CAAACTAGGGCACGAAAGGTCAAAGTCGAATGAC; 0.977
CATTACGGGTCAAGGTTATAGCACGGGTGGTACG; 1.29
CCTACTGGGCCATCAGGTCATTGGTATCAACGTT; 3.05
ACTAGCAGGCCAAGTTAGGGTCACTCAAACAAAG; 2.34
TTACCAAGTTGAGCTGAGGTCGTTGATCCAACTC; 1.77

====

Tested on: PPARg:RXRa IVT, anti-PPARg (NR concentration 270 nM, RXRa partner concentration 90 nM)
Experiment: PBM binding z-score (relative to random genomic background probes); higher = stronger binding; sequences stand for … in GC…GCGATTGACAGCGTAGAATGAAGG
Kindly return Y if reported PBM binding z-score is no lower than 1; return N if it is lower.

AATACTGGGTCATCGTAGGCCAGAGTACGCACAG; Y
CAAACTAGGTCACCGGAAGGTCAAGGTCCGCATG; Y
AGAAGGAGGTTACCAAAGATCAGGGAAACGCTTG; Y
ACTAGCAGGCCAAGTTTGGGTCACTCTAACAAAG; Y
GCAGACAGGTGAAACGCAGGGAACTCAGGGTGGC; N
ACAGACAGGTGAGTAAAGGTAACTCAGCTGGACG; Y
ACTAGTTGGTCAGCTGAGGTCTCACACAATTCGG; N
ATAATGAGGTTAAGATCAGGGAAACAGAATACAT; Y
TAGCCTAGGTCATTGGGCCAGGATAGTACGCATC; Y
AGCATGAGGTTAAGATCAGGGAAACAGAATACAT; N
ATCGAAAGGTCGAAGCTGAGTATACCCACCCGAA; Y
ATCTCTAGGTAAAGATAGTTCAATGAATGCAAAT; Y
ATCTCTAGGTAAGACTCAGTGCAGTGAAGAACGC; N
CCAGACAGTTGAAAGGTAACTCAGTCTGGTACGC; N
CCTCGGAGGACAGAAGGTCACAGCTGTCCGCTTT; Y
CCGACTGGCGCAGAAAGGTTACCATACCATCCGG; N
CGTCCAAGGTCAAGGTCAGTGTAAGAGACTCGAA; Y
ATATGTAGGTTGAGGGTCATTCAGGTTGGTTCGC; Y
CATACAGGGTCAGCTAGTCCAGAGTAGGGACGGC; Y
TCTGCTAGGTCAGTTGGTCATCTAACGAGCTGCC; Y
CGTCAAAGTTCAACTAAGGTAACCTAAAGCACGC; Y
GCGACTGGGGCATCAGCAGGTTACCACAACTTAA; Y
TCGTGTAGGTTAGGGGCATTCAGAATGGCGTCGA; Y
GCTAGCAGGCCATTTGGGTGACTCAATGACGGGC; N
CGTCACAGTTCAACTAAGGTAACGTAAAGCACGC; Y
TCTTGTAGATCAGCGGGTTAAGAAAGCTGGCCAA; N
